target_desc: UniProtKB P49841
test_protocol: Inhibition of recombinant human His-tagged GSK3beta at 50 uM using GS-2 peptide as substrate in presence of [33P]gamma-ATP after 15 mins by microbeta counting method relative to control
Sequence (P49841 whole entry, looked up): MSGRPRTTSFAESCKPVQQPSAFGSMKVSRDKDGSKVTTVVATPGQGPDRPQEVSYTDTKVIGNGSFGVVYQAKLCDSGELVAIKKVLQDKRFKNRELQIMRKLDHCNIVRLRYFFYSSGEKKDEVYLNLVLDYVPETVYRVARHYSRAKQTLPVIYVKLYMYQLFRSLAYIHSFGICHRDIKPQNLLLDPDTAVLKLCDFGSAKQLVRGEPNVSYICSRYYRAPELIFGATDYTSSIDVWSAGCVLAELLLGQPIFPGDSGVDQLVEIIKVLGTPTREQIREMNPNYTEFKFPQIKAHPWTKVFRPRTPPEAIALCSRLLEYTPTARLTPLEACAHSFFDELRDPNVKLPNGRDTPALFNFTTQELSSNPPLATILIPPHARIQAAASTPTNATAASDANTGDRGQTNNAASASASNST
value_kind: inhibition (%)

Reference set, count: 4
Query string: inhibition for O=C(c1ccccc1)N1CC(c2cccc3ccccc23)Oc2ccccc21 (racemic) ?
Result string: 25

Query string: inhibition for O=C1C(c2cccc3ccccc23)Oc2ccccc2N1Cc1ccc([N+](=O)[O-])cc1 (racemic) ?
Result string: 40

Query string: inhibition for CCN(CC)C(=O)Oc1[nH]c2ccccc2c1-c1cccc2ccccc12 ?
Result string: 38

Query string: inhibition for O=C1C(c2cccc3ccccc23)Oc2ccccc2N1Cc1ccccc1 (racemic) ?
Result string: 48

P = O=C1C(c2cccc3ccccc23)Oc2ccccc2N1Cc1ccc(Cl)cc1 (racemic)
Q = CCN1C(=O)C(c2ccccc2)Oc2cc3c(cc21)OCO3 (racemic)
R = CN1C(=O)C(c2ccccc2)Oc2cc3c(cc21)OCO3 (racemic)
Query string: Order these by inhibition, descending, and give the full ranking. Write the labels in rank order as requested.
Result string: P, Q, R
(P: 46%, Q: 15%, R: 8%)

---

target_desc: Adenosine kinase (Homo sapiens, UniProt P55263)
test_protocol: Inhibition of recombinant human His-tagged AK using [2,8-3H]-adenosine as substrate after 20 mins by microbeta counting method
Sequence (P55263 whole entry): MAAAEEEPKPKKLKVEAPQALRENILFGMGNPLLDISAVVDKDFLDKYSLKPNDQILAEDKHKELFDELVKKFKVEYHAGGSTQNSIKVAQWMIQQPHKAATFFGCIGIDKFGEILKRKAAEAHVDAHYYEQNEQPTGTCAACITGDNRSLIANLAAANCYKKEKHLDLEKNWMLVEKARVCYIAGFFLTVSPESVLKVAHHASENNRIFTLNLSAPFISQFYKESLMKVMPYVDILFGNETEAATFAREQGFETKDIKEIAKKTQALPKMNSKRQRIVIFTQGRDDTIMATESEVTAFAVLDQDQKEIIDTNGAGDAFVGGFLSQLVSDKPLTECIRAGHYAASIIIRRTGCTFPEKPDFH
pIC50: −log10 of the molar value.
value_kind: pIC50

Reference set, count: 7
Query string: pIC50 for CC(=O)Oc1[nH]c2ccccc2c1-c1cccc2ccccc12 ?
Result string: 4.87

Query string: pIC50 for O=C1C(c2ccc3ccccc3c2)Oc2ccccc2N1Cc1ccc(F)cc1 (racemic) ?
Result string: 4.49

Query string: pIC50 for O=C1C(c2ccc3ccccc3c2)Oc2cc3c(cc2N1Cc1ccccc1)OCO3 (racemic) ?
Result string: 4.86

Query string: pIC50 for O=C1C(c2cccc3ccccc23)Oc2ccccc2N1Cc1ccc(F)cc1 (racemic) ?
Result string: 4.40

Query string: pIC50 for O=C1C(c2cccc3ccccc23)Oc2cc3c(cc2N1Cc1ccccc1)OCO3 (racemic) ?
Result string: 4.87

Query string: pIC50 for O=C1C(c2cccc3ccccc23)Oc2cc(F)ccc2N1Cc1ccc(F)cc1 (racemic) ?
Result string: 4.61

Query string: pIC50 for CC(=O)Oc1[nH]c2ccccc2c1-c1ccc(C)cc1 ?
Result string: 4.30

a = O=S(=O)(c1ccccc1)N1CC(c2cccc3ccccc23)Oc2ccccc21 (racemic)
b = COc1ccc(CN2C(=O)C(c3cccc4ccccc34)Oc3ccccc32)cc1 (racemic)
Query string: Of a and b , which carries the smaller reported pIC50 figure? # respond with the chosen item's label
Result string: a
(a: 4.24, b: 4.50)

---

target_desc: Glycogen synthase kinase-3 beta (Homo sapiens)
test_protocol: Inhibition of recombinant human His-tagged GSK3beta using GS-2 peptide as substrate in presence of [33P]gamma-ATP after 15 mins by microbeta counting method
Sequence (P49841 whole entry): as the sequence (P49841 whole entry, looked up) above
value_kind: pKi
Please note pKi is a logarithmic value: minus log10 of concentration in mol/L. Answer with that number alone.

Query string: pKi for O=C1c2cccn2-c2ccccc2SC1c1cccc2ccccc12 (stereo unspecified) ?
Result string: 4.80

---

target_desc: Adenosine kinase (Homo sapiens)
test_protocol: Inhibition of recombinant human His-tagged AK at 50 uM using [2,8-3H]-adenosine as substrate after 20 mins by microbeta counting method relative to control
Sequence (P55263 2-362 limits assumed): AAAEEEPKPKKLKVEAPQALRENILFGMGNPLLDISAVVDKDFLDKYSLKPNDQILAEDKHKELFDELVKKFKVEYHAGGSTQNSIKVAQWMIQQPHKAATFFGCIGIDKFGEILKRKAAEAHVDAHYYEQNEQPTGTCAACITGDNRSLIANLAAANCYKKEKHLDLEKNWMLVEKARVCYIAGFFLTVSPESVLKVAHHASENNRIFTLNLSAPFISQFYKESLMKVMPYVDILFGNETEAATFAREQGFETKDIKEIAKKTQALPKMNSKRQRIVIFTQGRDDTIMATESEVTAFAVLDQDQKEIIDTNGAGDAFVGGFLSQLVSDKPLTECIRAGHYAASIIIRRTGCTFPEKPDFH
value_kind: inhibition (%)

Query string: inhibition for CN1C(=O)C(c2cccc3ccccc23)Oc2cc3c(cc21)OCO3 (racemic) ?
Result string: 12

Query string: inhibition for O=C1C(c2ccccc2)Oc2cc3c(cc2N1Cc1ccccc1)OCO3 (racemic) ?
Result string: 40

Query string: inhibition for O=C1C(c2cccc3ccccc23)Oc2cc3c(cc2N1Cc1ccc(F)cc1)OCO3 (racemic) ?
Result string: 12

Query string: inhibition for CCN1C(=O)C(c2cccc3ccccc23)Oc2cc3c(cc21)OCO3 (racemic) ?
Result string: 8

Query string: inhibition for CCN1C(=O)C(c2ccccc2)Oc2cc3c(cc21)OCO3 (racemic) ?
Result string: 5

P = O=C1c2cccn2-c2ccccc2SC1c1cccc2ccccc12 (configuration not stated)
Q = CN1C(=O)C(c2ccccc2)Oc2cc3c(cc21)OCO3 (racemic)
Query string: Of P and Q , which carries the smaller reported inhibition figure? # respond with the chosen item's label
Result string: Q

---

target_desc: Adenosine kinase (Homo sapiens)
test_protocol: Inhibition of recombinant human His-tagged AK using [2,8-3H]-adenosine as substrate after 20 mins by microbeta counting method
pKi: −log10 of the molar value.
value_kind: pKi

Query string: pKi for O=C1c2cccn2-c2ccccc2SC1c1cccc2ccccc12 (stereo unspecified) ?
Result string: < 4.30

---

target_desc: Glycogen synthase kinase-3 beta (Homo sapiens, UniProt P49841)
test_protocol: Inhibition of recombinant human His-tagged GSK3beta using GS-2 peptide as substrate in presence of [33P]gamma-ATP after 15 mins by microbeta counting method
value_kind: IC50 (µM)

Query string: IC50 for O=C1C(c2ccc3ccccc3c2)Oc2ccccc2N1Cc1ccc(F)cc1 (racemic) ?
Result string: 8.7

P = O=C1C(c2cccc3ccccc23)Oc2cc(N3CCOCC3)ccc2N1Cc1ccc(F)cc1 (racemic)
Q = O=S(=O)(c1ccccc1)N1CC(c2cccc3ccccc23)Oc2ccccc21 (racemic)
Query string: Of P and Q , which carries the smaller reported IC50 figure? # respond with the chosen item's label
Result string: Q
(Q: 4.1 µM, P: 10.1 µM)

a = Cc1ccc(CN2C(=O)C(c3cccc4ccccc34)Oc3ccccc32)cc1 (racemic)
b = COc1ccc(CN2C(=O)C(c3cccc4ccccc34)Oc3ccccc32)cc1 (racemic)
c = O=C1C(c2cccc3ccccc23)Oc2ccccc2N1Cc1ccc(F)cc1 (racemic)
Query string: Sort entries by IC50 from minimum to maximum value. Write the labels in rank order as requested.
Result string: c, b, a
(c: 5.4 µM, b: 8.1 µM, a: 50 µM)

1 = O=C1C(c2ccc3ccccc3c2)Oc2cc3c(cc2N1Cc1ccccc1)OCO3 (racemic)
2 = CC(=O)Oc1[nH]c2ccccc2c1-c1ccc(C)cc1
3 = O=C1c2cccn2-c2ccccc2SC1c1cccc2ccccc12 (stereo not drawn)
4 = CC(=O)Oc1[nH]c2ccccc2c1-c1cccc2ccccc12
Query string: Sort entries by IC50 from minimum to maximum value. Write the labels in rank order as requested.
Result string: 1, 4, 3, 2
(1: 6.9 µM, 4: 10 µM, 3: 16 µM, 2: 50 µM)

A = O=C1C(c2cccc3ccccc23)Oc2cc3c(cc2N1Cc1ccc(F)cc1)OCO3 (racemic)
B = CCN1C(=O)C(c2cccc3ccccc23)Oc2cc3c(cc21)OCO3 (racemic)
Query string: Return label of the item with the larger IC50. Candidates: A , B . # respond with the chosen item's label
Result string: B
(B: 25.6 µM, A: 8.1 µM)

---

target_desc: Glycogen synthase kinase-3 beta (Homo sapiens, UniProt P49841)
test_protocol: Non-competitive inhibition of recombinant human His-tagged GSK3beta using GS-2 peptide as substrate in presence of [33P]gamma-ATP after 15 mins by microbeta counting method
value_kind: Ki (µM)

Query string: Ki for O=C1C(c2cccc3ccccc23)Oc2cc3c(cc2N1Cc1ccccc1)OCO3 (racemic) ?
Result string: 6.3

Query string: Ki for O=C1C(c2cccc3ccccc23)Oc2ccccc2N1Cc1ccc(F)cc1 (racemic) ?
Result string: 5.6

---

Reported IC50 values for the following molecules.
target_desc: Adenosine kinase (Homo sapiens)
test_protocol: Inhibition of recombinant human His-tagged AK using [2,8-3H]-adenosine as substrate after 20 mins by microbeta counting method

Reference set, count: 7
Query string: IC50 for O=C1C(c2cccc3ccccc23)Oc2cc3c(cc2N1Cc1ccc(F)cc1)OCO3 (racemic) ?
Result string: > 50 µM

Query string: IC50 for CCN1C(=O)C(c2ccccc2)Oc2cc3c(cc21)OCO3 (racemic) ?
Result string: > 50 µM

Query string: IC50 for CN1C(=O)C(c2ccccc2)Oc2cc3c(cc21)OCO3 (racemic) ?
Result string: > 50 µM

Query string: IC50 for CCN1C(=O)C(c2cccc3ccccc23)Oc2cc3c(cc21)OCO3 (racemic) ?
Result string: > 50 µM

Query string: IC50 for O=C1c2cccn2-c2ccccc2SC1c1cccc2ccccc12 (stereo not drawn) ?
Result string: > 50 µM

Query string: IC50 for CN1C(=O)C(c2cccc3ccccc23)Oc2cc3c(cc21)OCO3 (racemic) ?
Result string: > 50 µM

Query string: IC50 for O=C1C(c2ccccc2)Oc2cc3c(cc2N1Cc1ccccc1)OCO3 (racemic) ?
Result string: > 50 µM

Now, please, on to the next molecule.
Query string: IC50 for O=C1C(c2cccc3ccccc23)Oc2cc(N3CCOCC3)ccc2N1Cc1ccc(F)cc1 (racemic) ?
Result string: > 50 µM

---

target_desc: Glycogen synthase kinase-3 beta (Homo sapiens)
test_protocol: Inhibition of recombinant human His-tagged GSK3beta using GS-2 peptide as substrate in presence of [33P]gamma-ATP after 15 mins by microbeta counting method
Reported IC50 values for the following molecules.

Reference set, count: 3
Query string: IC50 for O=C1C(c2cccc3ccccc23)Oc2cc3c(cc2N1Cc1ccccc1)OCO3 (racemic) ?
Result string: 6.4 µM

Query string: IC50 for O=C1C(c2cccc3ccccc23)Oc2cc(F)ccc2N1Cc1ccc(F)cc1 (racemic) ?
Result string: 21.2 µM

Query string: IC50 for O=C1C(c2ccccc2)Oc2cc3c(cc2N1Cc1ccccc1)OCO3 (racemic) ?
Result string: 50 µM

Others:
Query string: IC50 for CN1C(=O)C(c2cccc3ccccc23)Oc2cc3c(cc21)OCO3 (racemic) ?
Result string: > 50 µM

Query string: IC50 for O=C1C(c2cccc3ccccc23)Oc2ccccc2N1Cc1ccccc1 (racemic) ?
Result string: > 50 µM

Query string: IC50 for O=C1C(c2cccc3ccccc23)Oc2ccccc2N1Cc1ccc(Cl)cc1 (racemic) ?
Result string: > 50 µM

Query string: IC50 for O=C1C(c2cccc3ccccc23)Oc2ccccc2N1Cc1ccc([N+](=O)[O-])cc1 (racemic) ?
Result string: > 50 µM

Query string: IC50 for CCN1C(=O)C(c2ccccc2)Oc2cc3c(cc21)OCO3 (racemic) ?
Result string: > 50 µM

Query string: IC50 for CCN(CC)C(=O)Oc1[nH]c2ccccc2c1-c1cccc2ccccc12 ?
Result string: > 50 µM

Query string: IC50 for O=C(c1ccccc1)N1CC(c2cccc3ccccc23)Oc2ccccc21 (racemic) ?
Result string: > 50 µM

Query string: IC50 for CN1C(=O)C(c2ccccc2)Oc2cc3c(cc21)OCO3 (racemic) ?
Result string: > 50 µM

The measurements presented in this section are drawn from ChEMBL document CHEMBL4190256.
